Tested on: BE(2)-M17 (M17) cells
Assay: Method I: Measurement of Fe efflux from cells (57Fe-loaded, ICP-MS of media)
Type: cell-based, human
Conditions: Homo sapiens; M17 cells loaded with 20 μM 57Fe, compound 20 μM, 2 h; read-out: Fe-Efflux (% increase of Fe in media relative to cell media in the absence of the compound)
Assay Endpoint: activation at 20 µM

>>> test_result("COc1cccc(C(=O)N/N=C2\\CCCc3cccnc32)c1")
"< 30%"
>>> test_result("C/C(=N\\NC(=O)c1cc2c(s1)-c1ccccc1OC2)c1nc(C)cs1")
"< 30%"
>>> test_result("Cc1nc(C)c(C(=O)N/N=C2\\CCCc3cccnc32)s1")
"100 to 150%"

State recorded activation at 20 µM for all listed molecules.
1. COc1cccc(C(=O)N/N=C(/c2ncccn2)C(C)C)c1
2. O=C(N/N=C1\CCCc2cccnc21)c1cccnc1
3. O=C(N/N=C1\CCOc2cccnc21)c1cccnc1
4. COc1ccc(C(=O)N/N=C2\CCCc3cccnc32)cc1
5. O=C(N/N=C1\CCCc2cccnc21)c1ccccc1

A:
< 30%
> 150%
< 30%
30 to 100%
30 to 100%

State recorded activation at 20 µM for all listed molecules.
1. Cc1nnsc1C(=O)N/N=C1\CCOc2cccnc21
2. O=C(N/N=C1\CCCc2cccnc21)c1ccccc1OCCN1CCCCC1
3. Cc1cc(C(=O)N/N=C2\CCCc3cccnc32)no1
4. COc1cccc(C(=O)N/N=C(\C)c2ncccn2)c1

A:
100 to 150%
> 150%
> 150%
30 to 100%

Every entry's value here was drawn from patent US11603364B2.
